- experimental.protocol: MRT (0 to infinity) in female Beagle dog at 1 mg/kg,iv measured upto 24 hrs
- Assay type: ADME, organism-based, Canis lupus familiaris
- conditions: in vivo
value.type: MRT inf (min)
# number only, unit min dropped from output

For the compound "CC(=O)O[C@@]12CO[C@@H]1C[C@H](O)[C@@]1(C)C(=O)[C@H](O)C3=C(C)[C@@H](OC(=O)[C@H](OC(=O)CCC(=O)NCCCC[C@H](NC(=O)CC[C@@H](NC(=O)[C@H](C)NC(=O)/C=C/c4ccc(F)cc4Cl)C(N)=O)C(=O)O)[C@@H](NC(=O)OC(C)(C)C)c4ccccc4)C[C@@](O)([C@@H](OC(=O)c4ccccc4)[C@H]21)C3(C)C" , report MRT inf.
18.4

---

- experimental.protocol: Clearance in male Beagle dog at 2 mg/kg,iv measured upto 24 hrs
- Type: ADME, organism-based, Canis lupus familiaris
- conditions: in vivo
value.type: clearance
Give the number first and the unit second.

For the molecule "CC(=O)O[C@@]12CO[C@@H]1C[C@H](O)[C@@]1(C)C(=O)[C@H](O)C3=C(C)[C@@H](OC(=O)[C@H](OC(=O)CCC(=O)NCCCC[C@H](NC(=O)CC[C@@H](NC(=O)[C@H](C)NC(=O)/C=C/c4ccc(F)cc4Cl)C(N)=O)C(=O)O)[C@@H](NC(=O)OC(C)(C)C)c4ccccc4)C[C@@](O)([C@@H](OC(=O)c4ccccc4)[C@H]21)C3(C)C" , report clearance.
7.13 mL/min/kg

---

- experimental.protocol: Tmax in mouse plasma implanted with mouse 4T1 cells at 10 mg/kg,iv measured upto 72 hrs
- Type: ADME, organism-based
value.type: Tmax
Give the number first and the unit second.

For the compound "CC(=O)O[C@@]12CO[C@@H]1C[C@H](O)[C@@]1(C)C(=O)[C@H](O)C3=C(C)[C@@H](OC(=O)[C@H](OC(=O)CCC(=O)NCCCC[C@H](NC(=O)CC[C@@H](NC(=O)[C@H](C)NC(=O)/C=C/c4ccc(F)cc4Cl)C(N)=O)C(=O)O)[C@@H](NC(=O)OC(C)(C)C)c4ccccc4)C[C@@](O)([C@@H](OC(=O)c4ccccc4)[C@H]21)C3(C)C" , report Tmax.
1.8 min

---

- experimental.protocol: AUC (0-t) in female Beagle dog at 4 mg/kg,iv measured upto 24 hrs
- Format: ADME, organism-based, Canis lupus familiaris
- Design: dose 4 mg/kg, time < 24 hrs, route iv
- conditions: in vivo
value.type: AUC(0-t) at 24 h (ng·h/mL)
# number only, unit ng·h/mL dropped from output

For the compound "CC(=O)O[C@@]12CO[C@@H]1C[C@H](O)[C@@]1(C)C(=O)[C@H](O)C3=C(C)[C@@H](OC(=O)[C@H](OC(=O)CCC(=O)NCCCC[C@H](NC(=O)CC[C@@H](NC(=O)[C@H](C)NC(=O)/C=C/c4ccc(F)cc4Cl)C(N)=O)C(=O)O)[C@@H](NC(=O)OC(C)(C)C)c4ccccc4)C[C@@](O)([C@@H](OC(=O)c4ccccc4)[C@H]21)C3(C)C" , report AUC(0-t) at 24 h.
20300

---

- experimental.protocol: Cmax in male rat at 8 mg/kg,iv measured upto 24 hrs
- Type: ADME, organism-based
- Set-up: time < 24 hrs, dose 8 mg/kg, route iv
- conditions: in vivo
value.type: Cmax
Give the number first and the unit second.

For the compound "CC(=O)O[C@@]12CO[C@@H]1C[C@H](O)[C@@]1(C)C(=O)[C@H](O)C3=C(C)[C@@H](OC(=O)[C@H](OC(=O)CCC(=O)NCCCC[C@H](NC(=O)CC[C@@H](NC(=O)[C@H](C)NC(=O)/C=C/c4ccc(F)cc4Cl)C(N)=O)C(=O)O)[C@@H](NC(=O)OC(C)(C)C)c4ccccc4)C[C@@](O)([C@@H](OC(=O)c4ccccc4)[C@H]21)C3(C)C" , report Cmax.
61.9 µg/mL
